Kindly state Papp at 100 µM for each of the entries shown.
# assay remarks: Effective permeability at 100 uM after 3 to 6 hrs by PAMPA assay
# Assay type: ADME
# test settings: time 3-6 hrs, read-out: Peff
One number for each entry, in ×10⁻⁶ cm/s.

Can you give me Papp at 100 µM for all of these, one by one?
1. COc1ccc2[nH]cc(CCNC(=O)CN(CCCCCCCCNc3c4c(nc5ccccc35)CCCC4)C(=O)CCCC[C@@H]3CCSS3)c2c1
2. COc1ccc2nc3c(c(NCCCCCCCN(CC(=O)NCCc4c[nH]c5ccc(OC)cc45)C(=O)/C=C/c4ccc(O)c(OC)c4)c2c1)CCCC3
3. COc1ccc2nc3c(c(NCCCCCCN(CC(=O)NCCc4c[nH]c5ccc(OC)cc45)C(=O)/C=C/c4ccc(O)c(OC)c4)c2c1)CCCC3
4. COc1ccc2nc3c(c(NCCCCCCCCN(CC(=O)NCCc4c[nH]c5ccc(OC)cc45)C(=O)/C=C/c4ccc(O)c(OC)c4)c2c1)CCCC3
5. COc1ccc2[nH]cc(CCNC(=O)CN(CCCCCCCCNc3c4c(nc5ccccc35)CCCC4)C(=O)/C=C/c3ccc(O)c(OC)c3)c2c1

Reply:
1. 6.9
2. 4.2
3. 2.2
4. 1.8
5. 5.8

====

# assay target: Nuclear factor erythroid 2-related factor 2 (Homo sapiens) (UniProt Q16236)
# Sequence (Q16236 whole entry): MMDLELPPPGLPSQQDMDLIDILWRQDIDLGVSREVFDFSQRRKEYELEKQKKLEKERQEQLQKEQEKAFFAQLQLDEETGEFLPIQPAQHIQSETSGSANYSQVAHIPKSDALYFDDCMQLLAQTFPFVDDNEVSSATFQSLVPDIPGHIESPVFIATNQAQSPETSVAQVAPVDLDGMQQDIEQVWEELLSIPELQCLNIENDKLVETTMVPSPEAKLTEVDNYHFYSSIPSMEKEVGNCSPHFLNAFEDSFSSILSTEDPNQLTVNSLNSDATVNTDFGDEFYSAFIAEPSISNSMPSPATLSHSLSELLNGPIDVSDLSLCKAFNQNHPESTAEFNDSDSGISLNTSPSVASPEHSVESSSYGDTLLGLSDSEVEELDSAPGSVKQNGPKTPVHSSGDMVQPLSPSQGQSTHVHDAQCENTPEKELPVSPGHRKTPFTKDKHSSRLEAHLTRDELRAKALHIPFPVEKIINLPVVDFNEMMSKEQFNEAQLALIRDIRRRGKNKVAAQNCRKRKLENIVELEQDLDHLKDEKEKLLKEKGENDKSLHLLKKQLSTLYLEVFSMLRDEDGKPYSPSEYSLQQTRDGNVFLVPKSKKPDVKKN
# assay remarks: Activation of NRF2 in human MCF-7/AREc32 cells assessed as concentration required to double Nrf2 transcriptional pathway by measuring specific luciferase reporter activity incubated for 24 hrs by luciferase reporter gene assay
# Format: cell-based
# test settings: MCF7, filed as activator
Kindly state CD for each of the entries shown.
Answers are plain numbers, in µM.

Worked cases, CD given:
COc1ccc2nc3c(c(NCCCCCCCCN(CC(=O)NCCc4c[nH]c5ccc(OC)cc45)C(=O)/C=C/c4ccc(O)c(OC)c4)c2c1)CCCC3 = 5.99
COc1ccc2[nH]cc(CCNC(=O)CN(CCCCCCCCNc3c4c(nc5ccccc35)CCCC4)C(=O)/C=C/c3ccc(O)c(OC)c3)c2c1 = 15.7
CC(C)(C)c1cc(O)ccc1O = 1.68
COc1ccc2nc3c(c(NCCCCCCN(CC(=O)NCCc4c[nH]c5ccc(OC)cc45)C(=O)/C=C/c4ccc(O)c(OC)c4)c2c1)CCCC3 = 10.9

Could you now look at the following compound, please?
// sample COc1ccc2nc3c(c(NCCCCCCCN(CC(=O)NCCc4c[nH]c5ccc(OC)cc45)C(=O)/C=C/c4ccc(O)c(OC)c4)c2c1)CCCC3 , its CD was 6.31

====

# assay remarks: in vitro
# test settings: human, HepG2 cells
# Description: Toxicity in human HepG2 cells assessed as cell viability at 1000 uM by MTT assay relative to control
The label class 1 is reserved for viability at 1000 µM strictly under 60%; class 0 covers values equal to or above it.

// below: answered compounds
COc1ccc2nc3c(c(NCCCCCCN(CC(=O)NCCc4c[nH]c5ccc(OC)cc45)C(=O)/C=C/c4ccc(O)c(OC)c4)c2c1)CCCC3 = class 1
COc1ccc2[nH]cc(CCNC(=O)CN(CCCCCCCCNc3c4c(nc5ccccc35)CCCC4)C(=O)/C=C/c3ccc(O)c(OC)c3)c2c1 = class 1
COc1ccc2nc3c(c(NCCCCCCN(CC(=O)NCCc4c[nH]c5ccc(OC)cc45)C(=O)CCCC[C@@H]4CCSS4)c2c1)CCCC3 = class 1
COc1ccc2nc3c(c(NCCCCCCCCN(CC(=O)NCCc4c[nH]c5ccc(OC)cc45)C(=O)CCCC[C@@H]4CCSS4)c2c1)CCCC3 = class 1

// switching to the query compound
Task item: Dear reviewer, please state whether COc1ccc2[nH]cc(CCNC(C)=O)c2c1 has viability at 1000 µM strictly beneath 60%.
Reply: class 0

Provenance of the data: ChEMBL document CHEMBL4680085
